protocolDetails: Solubility of dyestuffs in water
Type: physicochemical
testConditions: Table 3, dyestuff of Example 13 structure, chloride, 25° C., read-out: Solubility in water at 25° C.
As shown below, each of these molecules has a reported solubility value.
Give your result in µg/mL as a bare value.

1. CCN(CC[n+]1ccc(C)cc1)c1ccc(N=Nc2ccc([N+](=O)[O-])cc2Cl)cc1 | 10000

Next molecule, solubility to be filled in.
// field: solubility; key: CCN(CC[n+]1ccccc1)c1ccc(N=Nc2ccc([N+](=O)[O-])cc2Cl)cc1 ; value = 10000

* * *

As shown below, each of these compounds has a reported solubility value.
protocolDetails: Solubility of dyestuffs in water
Type: physicochemical
testConditions: Table 4, dyestuff of Example 19 structure, acid sulphate, 25° C., read-out: Solubility in water at 25° C.
Give your result in µg/mL as a bare value.

1) CCN(CC[n+]1ccc(C)cc1)c1ccc(N=Nc2c(Cl)cc([N+](=O)[O-])cc2Cl)cc1 [γ-picoline (Table 4)] | 1000

// field: solubility; key: CCN(CC[n+]1ccccc1)c1ccc(N=Nc2c(Cl)cc([N+](=O)[O-])cc2Cl)cc1 [Pyridine (Table 4)] ; value = 10000
